Measured pKi of individual entries
target: ACE-2 (Homo sapiens); construct: a stop codon inserted after the serine immediately preceding the transmembrane domain; made in house; host or cells: CHO K1 cells (transient transfection, purified from conditioned medium); test: ACE-2 Competitive Substrate Assay (ACS Assay); type: biochemical; details: Ki class; compounds tested in 5% DMSO, 12 compound concentrations, Ki=Kiapp/(1+[S]/Km); read-out: Human ACE-2 Activity
pKi: −log10 of the molar value.

In the examples that follow, each entry is paired with its recorded pKi.
CC(C)C[C@H](N[C@@H](Cn1ccn(Cc2cc(F)ccc2F)c1=O)C(=O)O)C(=O)O | > 7.00
CC(C)CC(N[C@@H](Cc1cncn1Cc1ccccc1-c1ccccc1)C(=O)O)C(=O)O (single isomer, unassigned) | < 6.30
COC(=O)[C@H](Cc1cncn1Cc1cc(Cl)cc(Cl)c1)N[C@@H](CC(C)C)C(=O)OC | > 7.00

Next molecule, pKi to be filled in.
In: Fill in: pKi of Cc1ccc(-c2ccc(C[C@H](N[C@@H](CC(C)C)C(=O)O)C(=O)O)cc2)cc1 is ___
Out: > 7.00

----------
molecular target: Carboxypeptidase A (Bos taurus); experiment: Carboxypeptidase A activity assay; format: biochemical; details: Ki class; compounds tested in 5% DMSO, 12 concentrations
Ki by entry:

Examples from the recorded data:
CC(C)CC(N[C@@H](Cc1cncn1COCc1ccccc1)C(=O)NCCc1ccccc1)C(=O)O (single isomer, unassigned) [FN] | > 50 µM
O=C(O)C[C@H](NC(CCc1ccccc1)C(=O)O)C(=O)O (stereo partly drawn) [AZ] | > 50 µM
CSCC[C@H](NC(CCc1ccccc1)C(=O)O)C(=O)O (stereo partly drawn) [Y] | > 50 µM

In: Form field - read-out: Ki; system: Carboxypeptidase A (Bos taurus); submitted item: CCCC(N[C@@H](Cc1ccccc1)C(=O)O)C(=O)O (stereo partly drawn) [AA]
Out: > 50 µM

In: Now the same for CC(C)CC(N[C@@H](Cc1cncn1COCc1ccccc1)C(N)=O)C(=O)O (single isomer, unassigned) [FC]
Out: > 50 µM

In: Repeat for the following compound: CC(C)C[C@H](NCC(=O)c1ccccc1)C(=O)O [DW]
Out: < 10 µM

In: Please do the same for O=C(O)C(Cc1ccccc1)N[C@@H](Cc1cncn1Cc1ccccc1)C(=O)O (single isomer, unassigned) [GF] as well.
Out: < 10 µM

In: Next entry: CCC(N[C@@H](CCSC)C(=O)O)C(=O)O (stereo partly drawn) [Z]
Out: > 50 µM

In: Thanks! And CCCCC(CC(=O)O)N[C@@H](Cc1c[nH]cn1)C(=O)O (single isomer, unassigned) [ES] ?
Out: > 50 µM

----------
Measured pKi, listed per entry for reference.
Biological target: Carboxypeptidase A (Bos taurus)
Sequence (P00730 111-419): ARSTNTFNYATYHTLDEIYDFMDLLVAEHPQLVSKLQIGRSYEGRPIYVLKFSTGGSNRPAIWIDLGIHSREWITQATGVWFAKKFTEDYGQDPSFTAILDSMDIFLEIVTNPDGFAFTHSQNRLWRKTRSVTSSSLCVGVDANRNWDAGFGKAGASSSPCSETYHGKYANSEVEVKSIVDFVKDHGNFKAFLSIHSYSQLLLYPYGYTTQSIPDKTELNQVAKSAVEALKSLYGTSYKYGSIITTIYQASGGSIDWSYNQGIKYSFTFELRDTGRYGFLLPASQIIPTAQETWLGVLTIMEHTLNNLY
Experiment: Carboxypeptidase A activity assay
Format: biochemical
Conditions: Ki class; compounds tested in 5% DMSO, 12 concentrations
pKi: −log10 of the molar value.

In: Look up pKi: O=C(O)C(CCc1ccccc1)N[C@@H](Cc1c[nH]cn1)C(=O)O (stereo partly shown) [ER]
Out: < 4.30

In: Now give it for CC(N[C@H](CCc1ccccc1)C(=O)O)C(=O)O (stereo partly shown) [AW] too.
Out: < 4.30

In: Consider next the molecule CC(C)CC(N[C@H](Cc1cccnc1)C(=O)O)C(=O)O (stereo partly shown) [CC] in the same way.
Out: < 4.30

In: Same lookup for CC(C)C[C@H](NC(=O)NCc1ccccc1)C(=O)O [DU] , please.
Out: 4.30 to 5.00

In: Next entry: CC(C)CC(NC(Cc1nccs1)C(=O)O)C(=O)O (stereo not shown) [CF]
Out: < 4.30

In: How about this molecule: O=C(O)C(CCc1ccccc1)N[C@@H](Cc1ccccc1)C(=O)O (stereo partly shown) [AJ]
Out: 4.30 to 5.00

In: # repeat for CC(NC(Cc1cccs1)C(=O)O)C(=O)O (stereo not shown) [AH]
Out: < 4.30

----------
biological target: ACE-2 (Homo sapiens, UniProt Q9BYF1); construct: a stop codon inserted after the serine immediately preceding the transmembrane domain; made in house; host or cells: CHO K1 cells (transient transfection, purified from conditioned medium); assay: ACE-2 Competitive Substrate Assay (ACS Assay); assay type: biochemical; conditions: Ki class; compounds tested in 5% DMSO, 12 compound concentrations, Ki=Kiapp/(1+[S]/Km); read-out: Human ACE-2 Activity
Sequence (Q9BYF1 18-740 limits assumed): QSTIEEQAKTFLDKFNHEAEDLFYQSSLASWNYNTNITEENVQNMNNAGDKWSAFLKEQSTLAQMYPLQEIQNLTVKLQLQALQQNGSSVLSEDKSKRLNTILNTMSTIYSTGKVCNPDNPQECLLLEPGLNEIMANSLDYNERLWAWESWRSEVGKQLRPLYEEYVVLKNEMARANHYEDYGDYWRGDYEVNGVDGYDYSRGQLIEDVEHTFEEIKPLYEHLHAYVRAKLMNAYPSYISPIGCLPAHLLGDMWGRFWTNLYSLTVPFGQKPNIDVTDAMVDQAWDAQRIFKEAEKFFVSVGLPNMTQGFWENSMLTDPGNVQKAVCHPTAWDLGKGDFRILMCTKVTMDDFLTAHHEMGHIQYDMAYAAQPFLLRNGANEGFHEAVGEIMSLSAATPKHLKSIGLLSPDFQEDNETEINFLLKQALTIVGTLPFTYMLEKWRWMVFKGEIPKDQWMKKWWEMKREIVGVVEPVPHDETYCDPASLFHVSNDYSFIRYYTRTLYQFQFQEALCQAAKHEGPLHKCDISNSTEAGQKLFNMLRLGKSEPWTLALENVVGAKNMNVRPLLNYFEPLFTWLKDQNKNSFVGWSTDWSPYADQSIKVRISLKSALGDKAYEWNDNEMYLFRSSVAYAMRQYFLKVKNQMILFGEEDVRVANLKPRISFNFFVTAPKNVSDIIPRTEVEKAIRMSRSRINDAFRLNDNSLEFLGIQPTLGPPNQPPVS
pKi: −log10 of the molar value.
Entries and their pKi values follow.

CC(C)CC(N[C@@H](Cc1cncn1Cc1ccc(C(C)(C)C)cc1)C(=O)O)C(=O)O (single isomer, unassigned) [HY] | > 7.00
CC(C)CC(N[C@@H](Cc1cncn1Cc1cccc(Cl)c1Cl)C(=O)O)C(=O)O (single isomer, unassigned) [IX] | < 6.30
CC(C)C[C@H](N[C@@H](Cn1ccn(Cc2cccc(F)c2)c1=O)C(=O)O)C(=O)O | > 7.00
Cc1ccc(Cn2cncc2C[C@H](NC(CC(C)C)C(=O)O)C(=O)O)cc1C (single isomer, unassigned) [HK] | > 7.00
Cc1ccccc1Cn1cncc1C[C@H](NC(CC(C)C)C(=O)O)C(=O)O (single isomer, unassigned) [HX] | < 6.30

In: Recorded pKi for CC(C)C[C@H](N[C@@H](Cc1ccn(-c2ccccc2)n1)C(=O)OC(C)(C)C)C(=O)O , please?
Out: < 6.30

In: CC(C)CC(N[C@@H](Cc1cncn1Cc1cccc(C(F)(F)F)c1)C(=O)O)C(=O)O (single isomer, unassigned) [JA] ?
Out: < 6.30

In: Field entry: CC(C)C[C@H](N[C@@H](Cn1ccn([C@H](C)c2ccccc2)c1=O)C(=O)O)C(=O)O
Out: < 6.30

In: Queued: CC(C)CC(N[C@@H](Cc1csc(NCc2ccccc2)n1)C(=O)O)C(=O)O (single isomer, unassigned)
Out: < 6.30

In: Next up: CC(C)C[C@H](N[C@@H](Cc1csc(-c2ccc(Cl)cc2Cl)n1)C(=O)O)C(=O)O
Out: > 7.00

----------
biological target: ACE-2 (Homo sapiens, UniProt Q9BYF1); construct: a stop codon inserted after the serine immediately preceding the transmembrane domain; made in house; host or cells: CHO K1 cells (transient transfection, purified from conditioned medium); test: ACE-2 Competitive Substrate Assay (ACS Assay); assay type: biochemical; details: Ki class; compounds tested in 5% DMSO, 12 compound concentrations, Ki=Kiapp/(1+[S]/Km); read-out: Human ACE-2 Activity
pKi: −log10 of the molar value.
# reported pKi; entries follow

In: // returns reported pKi for input CC(C)CC(N[C@@H](Cc1cncn1Cc1c(Cl)cccc1Cl)C(=O)O)C(=O)O (single isomer, unassigned)
Out: < 6.30

----------
target: ACE-2 (Rattus norvegicus, UniProt Q5EGZ1); test: ACE-2 Competitive Substrate Assay, rat ACE-2; assay type: biochemical; details: Ki class; compounds tested in 5% DMSO, 12 concentrations
Sequence (Q5EGZ1 18-805): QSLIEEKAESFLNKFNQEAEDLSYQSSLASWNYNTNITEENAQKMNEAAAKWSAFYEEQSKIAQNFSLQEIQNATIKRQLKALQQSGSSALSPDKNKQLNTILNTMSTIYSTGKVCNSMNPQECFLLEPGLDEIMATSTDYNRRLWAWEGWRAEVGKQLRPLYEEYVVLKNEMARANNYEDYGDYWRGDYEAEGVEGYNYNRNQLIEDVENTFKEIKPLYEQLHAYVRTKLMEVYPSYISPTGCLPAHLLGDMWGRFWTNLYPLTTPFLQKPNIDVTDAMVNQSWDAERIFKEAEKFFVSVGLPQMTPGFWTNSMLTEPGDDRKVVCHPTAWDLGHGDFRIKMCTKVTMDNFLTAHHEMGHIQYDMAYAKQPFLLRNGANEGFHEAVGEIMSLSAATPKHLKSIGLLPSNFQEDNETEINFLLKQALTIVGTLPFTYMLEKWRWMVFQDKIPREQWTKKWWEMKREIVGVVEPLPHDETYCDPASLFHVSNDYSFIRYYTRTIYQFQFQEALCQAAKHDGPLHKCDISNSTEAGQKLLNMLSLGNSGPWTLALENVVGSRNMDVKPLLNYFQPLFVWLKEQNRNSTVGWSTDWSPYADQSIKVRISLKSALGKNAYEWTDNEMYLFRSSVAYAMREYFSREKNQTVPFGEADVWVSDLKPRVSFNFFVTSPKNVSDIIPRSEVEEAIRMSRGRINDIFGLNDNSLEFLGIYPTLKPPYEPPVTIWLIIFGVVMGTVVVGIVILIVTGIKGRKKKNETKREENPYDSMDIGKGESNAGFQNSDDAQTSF
pKi: −log10 of the molar value.
Recorded metric: pKi

These recorded examples may help you get a feel for the data.
COC(=O)[C@H](CC(C)C)NCC(=O)[C@H](Cc1ccccc1)NC(=O)OCc1ccccc1 | < 6.30
CC(C)C[C@@H](N[C@@H](C(=O)O)c1ccccc1)C(=O)O | < 6.30
CC(C)CC(N[C@@H](Cc1cncn1COCc1ccccc1)C(=O)O)C(=O)O (single isomer, unassigned) [FG] | < 6.30
CCCC(N[C@H](CCc1ccccc1)C(=O)O)C(=O)O (stereo in doubt) | < 6.30

Now, please, on to the next compound.
In: Missing value: pKi, ACE-2 (Rattus norvegicus, UniProt Q5EGZ1), entry O=C(O)C(Cc1ccccc1)N[C@@H](Cc1cnc[nH]1)C(=O)O (some centres unmarked) . Fill in?
Out: 6.30 to 7.00

----------
molecular target: ACE-2 (Rattus norvegicus, UniProt Q5EGZ1); test: ACE-2 Competitive Substrate Assay, rat ACE-2; assay type: biochemical; conditions: Ki class; compounds tested in 5% DMSO, 12 concentrations
pKi: −log10 of the molar value.
Reported values of pKi for individual entries

Sample answers from the record:
O=C(O)C(Cc1ccc(O)cc1)N[C@@H](Cc1c[nH]cn1)C(=O)O (single isomer, unassigned) [DN] | < 6.30
CC(C)C[C@H](N[C@@H](Cc1ccccc1)C(=O)O)C(=O)O | 6.30 to 7.00
O=C(O)C[C@H](NC(CCc1ccccc1)C(=O)O)C(=O)O (some centres unmarked) | < 6.30
O=C(O)C(CCc1ccccc1)N[C@@H](Cc1c[nH]cn1)C(=O)O (some centres unmarked) | 6.30 to 7.00
COc1ccc(CCNC(=O)[C@H](Cc2cnc[nH]2)NC(CC(C)C)C(=O)O)cc1 (single isomer, unassigned) | < 6.30
CC(C)C[C@H](N[C@H](CC(=O)O)C(=O)O)C(=O)O | < 6.30
CC(C)C[C@H](NC(C(=O)O)c1ccc2ccccc2c1)C(=O)O (some centres unmarked) | < 6.30
COc1ccc(Cn2cnc(C[C@H](NC(CC(C)C)C(=O)O)C(=O)O)c2)cc1 (some centres unmarked) | < 6.30

In: Please report the recorded pKi for CC(C)CC(NC(Cc1ccccn1)C(=O)O)C(=O)O (centres unmarked) .
Out: 6.30 to 7.00

In: Thanks! And CC(C)CC(N[C@H](Cc1cn(C)cn1)C(=O)O)C(=O)O (some centres unmarked) ?
Out: < 6.30

In: Next entry: CC(C)CC(CS)C(=O)O (centres unmarked)
Out: 6.30 to 7.00

In: Another: CC(C)C[C@@H](C(=O)O)N(C(=O)c1ccccc1)C(CCc1ccccc1)C(=O)O (stereo in doubt)
Out: < 6.30

In: Record: CC(N[C@H](Cc1c[nH]cn1)C(=O)O)C(=O)O (some centres unmarked)
Out: < 6.30
